Source listed as patent US20260070922A1.

- TESTED_TARGET: Orexin type 1 (OX1R) receptor (Homo sapiens, UniProt O43613)
- Construct: expressed in transfected cells; host or cells: CHO cells (G418 selection)
- Sequence (O43613 1-425): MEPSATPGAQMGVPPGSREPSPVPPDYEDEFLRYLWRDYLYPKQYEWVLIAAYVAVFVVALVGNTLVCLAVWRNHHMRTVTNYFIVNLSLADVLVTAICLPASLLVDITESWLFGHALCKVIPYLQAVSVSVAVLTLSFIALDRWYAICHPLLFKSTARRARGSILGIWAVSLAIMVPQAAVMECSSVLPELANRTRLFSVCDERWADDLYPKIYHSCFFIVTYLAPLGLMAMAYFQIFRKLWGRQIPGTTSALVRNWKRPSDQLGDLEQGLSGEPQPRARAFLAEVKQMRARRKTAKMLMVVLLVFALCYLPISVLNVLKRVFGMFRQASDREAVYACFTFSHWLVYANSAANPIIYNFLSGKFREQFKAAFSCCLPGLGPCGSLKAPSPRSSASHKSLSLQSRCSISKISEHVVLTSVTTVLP
- PROCEDURE_DETAILS: In vitro orexin antagonism assay: intracellular calcium measurement (FLIPR), orexin-A 3 nM as agonist
- Format: cell-based
- SETUP_CONDITIONS: read-out: OX1R, % Inh. @ 1 uM
- Description: In Vitro Orexin Antagonism Measurement Assay: Intracellular Calcium Measurements: […] Within the Fluorescent Imaging Plate Reader (FLIPR Tetra, Molecular Devices), antagonists are added to the plate in a volume of 10 μL/well, incubated for 120 min and finally 10 μL/well of agonist is added. […] The calculated IC50values may fluctuate depending on the daily cellular assay performance. […]
RECORDED_METRIC: inhibition at 1 µM (%)

In the examples that follow, each entry is paired with its recorded inhibition at 1 µM.
• O=C(c1c(-c2ccccc2)nn2ccccc12)N1CCCC[C@H]1COc1ccc(C(F)(F)F)cn1 = 98
• O=C(c1c(-c2ccccc2)nc2ccc(F)cn12)N1CCC[C@H]1Cn1ccc(-c2ccc(F)cn2)n1 = 75

P: O=C(c1nn2c(c1-c1ccccn1)OCCC2)N1[C@H](Cn2ccc(-c3ccc(F)cn3)n2)C[C@@H]2C[C@@H]21
Q: O=C(c1c(-c2ccccc2)nc2cc(C(F)(F)F)ccn12)N1CC[C@H]1Cn1ccc(-c2ccc(F)cc2)n1
Q) Pick the one with the larger inhibition at 1 µM: P vs Q The response must carry the label of the picked entry.
A) P
(P: 87%, Q: 31%)
